# protein stability index values compiled below
B1: TNXB (parent)
chain: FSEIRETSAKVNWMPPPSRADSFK

- Variants of: B1
- Protocol: protein stability index of a GFP-peptide fusion (GPS, HEK-293T) (PSI 1-6); higher = more stable;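 further: lentivirally expressed fusions sorted by FACS into six bins by GFP to DsRed ratio, PSI derived from sequencing read proportions per bin multiplied by bin number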
- Measurement setup: c terminus: a fixed tail appended
Observation type: protein stability index

Mutation code: R5L
Reading: 3.51
//
Mutation code: E3H
Reading: 2.62
//
Mutation code: S18Y
Reading: 3.5
//
Mutation code: N12W
Reading: 2.2
//
Mutation code: E6P
Reading: 3.21
//
Mutation code: P16N
Reading: 2.89
//
Mutation code: A20I
Reading: 3.05
//
Mutation code: W13N
Reading: 4.49
//
Mutation code: K24R
Reading: 3.29
//
Mutation code: T7I
Reading: 2.9
//
Mutation code: K24E
Reading: 3.21
//
Mutation code: R5K
Reading: 3.74
//
Mutation code: I4C
Reading: 3.49
//
Mutation code: P16F
Reading: 2.67
//
Mutation code: D21F
Reading: 2.02
//
Mutation code: F1W
Reading: 3.6
//
Mutation code: E3M
Reading: 2.55
//
Mutation code: D21R
Reading: 3.52
//
Mutation code: F1P
Reading: 4.76
//
Mutation code: R5S
Reading: 4.02
//
Mutation code: F23M
Reading: 3.82
//
Mutation code: E3S
Reading: 3.09
